Listed compounds paired with reported Relative Potency
- SYSTEM NAME: VLA-4 (Homo sapiens, UniProt P05556+P13612)
- Sequence (P13612 34-1032): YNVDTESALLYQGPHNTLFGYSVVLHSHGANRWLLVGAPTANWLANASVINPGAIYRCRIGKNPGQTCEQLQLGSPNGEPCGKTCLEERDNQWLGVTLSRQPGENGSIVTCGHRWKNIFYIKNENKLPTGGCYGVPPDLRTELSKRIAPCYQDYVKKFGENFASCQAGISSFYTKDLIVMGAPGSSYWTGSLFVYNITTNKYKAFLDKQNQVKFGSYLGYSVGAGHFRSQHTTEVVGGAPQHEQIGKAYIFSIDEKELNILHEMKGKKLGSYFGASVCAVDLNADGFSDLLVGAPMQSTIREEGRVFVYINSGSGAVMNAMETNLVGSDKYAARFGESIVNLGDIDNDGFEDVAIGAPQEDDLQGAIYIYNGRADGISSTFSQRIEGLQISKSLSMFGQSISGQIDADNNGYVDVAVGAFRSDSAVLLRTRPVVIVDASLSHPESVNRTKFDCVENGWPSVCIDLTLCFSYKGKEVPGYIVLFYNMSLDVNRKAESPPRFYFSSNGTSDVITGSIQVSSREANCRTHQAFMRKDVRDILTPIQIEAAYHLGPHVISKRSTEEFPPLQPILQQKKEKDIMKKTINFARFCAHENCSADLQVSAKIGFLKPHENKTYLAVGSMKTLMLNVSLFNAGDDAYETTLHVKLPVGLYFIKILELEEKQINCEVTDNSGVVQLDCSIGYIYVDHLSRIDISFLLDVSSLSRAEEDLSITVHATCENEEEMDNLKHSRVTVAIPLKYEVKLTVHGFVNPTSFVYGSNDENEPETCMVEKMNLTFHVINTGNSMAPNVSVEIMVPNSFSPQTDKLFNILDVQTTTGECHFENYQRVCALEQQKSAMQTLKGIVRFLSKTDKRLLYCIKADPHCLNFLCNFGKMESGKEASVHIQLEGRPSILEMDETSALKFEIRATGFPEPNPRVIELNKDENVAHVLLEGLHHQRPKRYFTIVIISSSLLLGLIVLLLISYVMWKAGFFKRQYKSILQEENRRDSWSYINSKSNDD
- Sequence (P05556 21-798): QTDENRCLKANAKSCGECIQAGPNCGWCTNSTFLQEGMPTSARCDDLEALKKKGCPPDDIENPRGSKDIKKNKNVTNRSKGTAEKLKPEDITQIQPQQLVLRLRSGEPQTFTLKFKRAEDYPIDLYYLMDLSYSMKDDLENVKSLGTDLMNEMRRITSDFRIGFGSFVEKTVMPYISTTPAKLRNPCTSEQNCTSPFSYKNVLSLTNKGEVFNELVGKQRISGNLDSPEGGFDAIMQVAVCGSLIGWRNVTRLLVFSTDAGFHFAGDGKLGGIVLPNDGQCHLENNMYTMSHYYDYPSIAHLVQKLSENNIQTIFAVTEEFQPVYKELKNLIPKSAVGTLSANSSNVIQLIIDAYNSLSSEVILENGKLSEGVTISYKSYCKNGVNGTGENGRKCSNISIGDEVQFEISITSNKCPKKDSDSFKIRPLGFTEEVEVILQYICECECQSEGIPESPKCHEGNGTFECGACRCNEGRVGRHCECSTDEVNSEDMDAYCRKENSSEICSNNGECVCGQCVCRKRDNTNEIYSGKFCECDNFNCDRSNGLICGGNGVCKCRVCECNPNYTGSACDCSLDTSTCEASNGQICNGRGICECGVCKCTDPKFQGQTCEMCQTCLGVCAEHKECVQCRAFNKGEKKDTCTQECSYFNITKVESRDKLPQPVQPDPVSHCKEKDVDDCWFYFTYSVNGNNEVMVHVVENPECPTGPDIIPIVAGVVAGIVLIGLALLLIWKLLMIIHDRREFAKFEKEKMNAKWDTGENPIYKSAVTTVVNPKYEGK
- PROTOCOL: In vitro binding assay: 51Cr-labeled Jurkat cells to solid phase-bound CS-1 peptide (SEQ ID NO:5)
- Format: cell-based
- Set-up: inflammatory cells that contain the VLA-4 receptor [Jurkat cells; host or cells: Jurkat cells (human T lymphoblastic line)
- MEASUREMENT CONTEXT: Table 1; normalized IC50 potency relative to standard peptide SEQ ID NO:6 (=1); Jurkat cells, CS-1
Positions of bridges follow the written chain, without caps; N, C: chain ends. Residues, ends and D or L forms follow the SMILES beside them.
Give only the figure.

Some solved cases for reference:
| COMPOUND | QUANTITATIVE READOUT |
| --- | --- |
| CC(C)C[C@@H]1NC(=O)[C@H](CCC(=O)O)NC(=O)[C@@H]2CCCN2C(=O)[C@@H](N)CSSC[C@@H](C(N)=O)NC(=O)[C@H](CO)NC(=O)[C@@H]2CCCN2C(=O)[C@H](Cc2ccccc2)NC(=O)[C@H](CC(=O)O)NC1=O [SEQ ID NO:33, CPELDFPSC-NH2] (H-CPELDFPSC-NH2; disulfide 1-9) | 31 |
| CC(C)C[C@@H]1NC(=O)[C@H](Cc2ccccc2)NC(=O)[C@H](CCC(=O)O)NC(=O)[C@@H]2CCCN2C(=O)[C@@H](N)CSSC[C@@H](C(N)=O)NC(=O)[C@H](CO)NC(=O)[C@@H]2CCCN2C(=O)[C@H](Cc2ccccc2)NC(=O)[C@H](CC(=O)O)NC1=O [SEQ ID NO:19, CPEFLDFPSC-NH2] (H-CPEFLDFPSC-NH2; disulfide 1-10) | 6 |
| CC(C)C[C@@H]1NC(=O)[C@H](Cc2ccccc2)NC(=O)[C@H](CCC(=O)O)NC(=O)[C@@H]2CCCN2C(=O)CNC(=O)[C@@H](N)CSSC[C@@H](C(N)=O)NC(=O)[C@H](Cc2ccccc2)NC(=O)[C@H](CC(=O)O)NC1=O [SEQ ID NO:23, CGPEFLDFC-NH2] (H-CGPEFLDFC-NH2; disulfide 1-9) | 9 |
| CC(C)C[C@H](N)C(=O)N[C@@H](CC(=O)O)C(=O)N[C@H](C(N)=O)C(C)C [LDV-NH2, reference compound] (H-Leu-Asp-Val-NH2) | 0 |

Please find the next compound below.
Entry CC(C)C[C@@H]1NC(=O)[C@H](Cc2ccccc2)NC(=O)[C@H](CCC(=O)O)NC(=O)[C@@H](N)CSSC[C@@H](C(N)=O)NC(=O)[C@H]([C@@H](C)O)NC(=O)[C@H](CO)NC(=O)[C@@H]2CCCN2C(=O)[C@H](Cc2ccccc2)NC(=O)[C@H](CC(=O)O)NC1=O [SEQ ID NO:22, CEFLDFPSTC-NH2] (H-CEFLDFPSTC-NH2; disulfide 1-10) has what Relative Potency?
9
